# credit: the supplement of paper PMC10567573

B1: ZNF511 (parent)
chain: HLYPADFRFDKPKKSRSPASAEAP

Variants of: B1
TEST_PROTOCOL: protein stability index of a GFP-peptide fusion (GPS, HEK-293T) (PSI 1-6); higher = more stable;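 further: lentivirally expressed fusions sorted by FACS into six bins by GFP to DsRed ratio, PSI derived from sequencing read proportions per bin multiplied by bin number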
REPORTED_CONDITIONS: c terminus: a fixed tail appended
PARAMETER: protein stability index
One number for each entry.

{"columns": ["VAR", "protein stability index"],
 "data": [
  ["S20C", 2.92],
  ["F9H", 2.91],
  ["P12G", 3.02],
  ["P18K", 3.08]
]}

Q: For the variant `R16W` , what protein stability index is on record?
Result: 3.05
